B1: TPR t1 (parent)
chain: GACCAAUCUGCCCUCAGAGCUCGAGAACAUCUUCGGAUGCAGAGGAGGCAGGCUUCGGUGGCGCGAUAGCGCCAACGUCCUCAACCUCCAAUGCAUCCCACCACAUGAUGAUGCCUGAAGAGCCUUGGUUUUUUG

variants of: B1; test: polymerase ribozyme fitness, log enrichment relative to wild type (log ratio); higher = more active; in vitro selection for triplet polymerase activity
The following variants are listed with their measured polymerase ribozyme fitness (log ratio) values.

Worked set:
| mutant_designation | polymerase ribozyme fitness (log ratio) |
| --- | --- |
| U9A C20U A43U A50C U87A | -1.81 |
| C40G U132A | -0.821 |
| A37U C56G C85U | -1.26 |
| G52A C62A C123A | -1.42 |
| C3A G52U C64U | -2.19 |
| G39C U78A C94A C123A C124A G128A | -0.0279 |
| G47U G52A A83C | -2.36 |
| C62U U96A | -0.822 |

Now, please, on to the next variant.
// query Reported polymerase ribozyme fitness (log ratio), variant U9A C22A : ____
// result -4.76
